# Tested On: 5-HT2 receptor (Sus scrofa)
# Construct: membrane preparations from porcine cortical material; from tissue; host or cells: porcine cerebral cortex membranes
# Sequence (P50129 whole entry): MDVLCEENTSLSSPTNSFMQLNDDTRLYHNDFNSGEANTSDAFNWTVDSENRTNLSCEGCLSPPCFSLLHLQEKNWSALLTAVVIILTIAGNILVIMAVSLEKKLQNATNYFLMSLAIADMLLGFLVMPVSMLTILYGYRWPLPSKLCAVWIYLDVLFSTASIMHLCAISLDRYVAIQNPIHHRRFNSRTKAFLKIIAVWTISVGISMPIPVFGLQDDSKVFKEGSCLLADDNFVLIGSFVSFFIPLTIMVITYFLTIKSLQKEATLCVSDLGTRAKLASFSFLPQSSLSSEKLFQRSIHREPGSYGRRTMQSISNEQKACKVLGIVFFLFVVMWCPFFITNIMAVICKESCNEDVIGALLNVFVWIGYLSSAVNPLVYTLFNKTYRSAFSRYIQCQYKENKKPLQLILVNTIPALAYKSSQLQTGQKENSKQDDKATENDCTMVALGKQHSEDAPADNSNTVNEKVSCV
# Test Details: radioligand binding, porcine cortical membranes, [^3H]ketanserin
# Protocol Conditions: porcine cortical membranes, [^3H]ketanserin
pKi: −log10 of the molar value.
Metric Name: pKi

Clc1cccc(N2CCN(CCCCOc3ccn4ncc(I)c4c3)CC2)c1Cl :: 5.52 to 6.52

Exercise: I have this compound here, `O=Cc1cnn2ccc(OCCCCN3CCN(c4cccc(Cl)c4Cl)CC3)cc12` , and I need its recorded pKi.
Key: 6.52 to 7.52

Exercise: I have this compound here, `COC(=O)c1cnn2ccc(OCCCCN3CCN(c4ccccc4Cl)CC3)cc12` , and I need its recorded pKi.
Key: 5.52 to 6.52

Exercise: I have this compound here, `Clc1cccc(N2CCN(CCCCOc3ccn4ncc(Cl)c4c3)CC2)c1Cl` , and I need its recorded pKi.
Key: 5.52 to 6.52

Exercise: I have this compound here, `COc1ccccc1N1CCN(CCCCOc2ccn3ncc(I)c3c2)CC1` , and I need its recorded pKi.
Key: 5.52 to 6.52

Exercise: I have this compound here, ON=Cc1cnn2ccc(OCCCCN3CCN(c4ccccc4Cl)CC3)cc12 [Example E35] , and I need its recorded pKi.
Key: 6.52 to 7.52

Exercise: I have this compound here, `Clc1cccc(N2CCN(CCCCOc3cccn4nccc34)CC2)c1Cl` , and I need its recorded pKi.
Key: 5.52 to 6.52

Exercise: I have this compound here, `COC(=O)c1cnn2ccc(OCCCCN3CCN(c4ccccc4OC)CC3)cc12` , and I need its recorded pKi.
Key: 6.52 to 7.52

Exercise: I have this compound here, `Clc1cccc(N2CCN(CCCCOc3cccc4ccnn34)CC2)c1Cl` , and I need its recorded pKi.
Key: 6.52 to 7.52
